TEST DETAILS: Serum fatty acid metabolomics (UPLC-MS/MS), feeding study
CONDITIONS USED: bottlenose dolphin (Tursiops truncatus), in vivo, 6 weeks
Recorded serum concentration 6 wk / 0 wk for the following compounds
A bare number is all that is needed in reply.

INPUT: Requested read-out: serum concentration 6 wk / 0 wk. Entry: CCCCCCCCC(=O)O [perlargonate (9:0), nonanoic acid]
OUTPUT: 1.26

INPUT: Requested read-out: serum concentration 6 wk / 0 wk. Entry: CCCCC/C=C\C/C=C\C/C=C\C/C=C\CCCC(=O)O [Arachidonic acid]
OUTPUT: 1.19

INPUT: Requested read-out: serum concentration 6 wk / 0 wk. Entry: CC/C=C\C/C=C\C/C=C\C/C=C\C/C=C\CCCC(=O)O [eicosapentaenoate (EPA; 20:5n3), eicosapentaenoate]
OUTPUT: 0.88

INPUT: Requested read-out: serum concentration 6 wk / 0 wk. Entry: CCCCC/C=C\C/C=C\CCCCCCCC(=O)O [linoleate (18:2n6), linoleate]
OUTPUT: 0.87

----------
TEST DETAILS: Serum fatty acid metabolomics (UPLC-MS/MS), feeding study
CONDITIONS USED: in vivo
Procedure: This study examined global metabolic profiles in six dolphins (“Group A dolphins”). The dolphins lived in netted enclosures within San Diego Bay. The dolphins started on a 100% capelin diet. Group A dolphins were fed one-third of their daily diet in the morning after their routine overnight fast and 2h postprandial, in-water, and trained blood samples were drawn (typically near 10:00 a.m.). An additional four dolphins (“Group C dolphins”) were fed the capelin diet. […]
Strictly below 0.8 in serum concentration 24 wk / 0 wk: satisfied. Otherwise: not satisfied.

[[record]]
compound = "CCCCC/C=C\\C/C=C\\CCCCCCCCCCCC(=O)O [docosadienoate (22:2n6), docosadienoate]"
discrete_label = "satisfied"

[[record]]
compound = "CCCC/C=C\\CCCCCCCC(=O)O [myristoleate (14:ln5), myristoleate]"
discrete_label = "not satisfied"

[[record]]
compound = "CCCCCC/C=C\\CCCCCCCC(=O)O [palmitoleate (16:ln7), palmitoleate]"
discrete_label = "satisfied"

[[record]]
compound = "CC/C=C\\C/C=C\\C/C=C\\CCCCCCCCCCCC(=O)O [docosatrienoate (22:3n3), docosatrienoate]"
discrete_label = "not satisfied"

[[record]]
compound = "CCCCCCC=CCCCC(=O)O [5-dodecenoate (12:ln7), 5-dodecenoate]"
discrete_label = "not satisfied"

[[record]]
compound = "CCCCCCC=CCCCCCCCCC(=O)O [10-heptadecenoate (17:ln7), 10-heptadecenoate]"
discrete_label = "not satisfied"


Please examine the following record next.
INPUT: Does CCCCCCCCCCCCCCCCCCC(=O)O [nonadecanoate (19:0), nonadecanoate] have serum concentration 24 wk / 0 wk strictly under 0.8?
OUTPUT: not satisfied

----------
TEST DETAILS: Serum fatty acid metabolomics (UPLC-MS/MS), feeding study
CONDITIONS USED: in vivo
QUANTITY NAME: serum concentration 12 wk / 0 wk
A bare number is all that is needed in reply.

// known answers, use as guide
[[record]]
compound = "CCCCCCCCC=CCCCCCCCCC(=O)O [10-nonadecenoate (19:ln9), 10-nonadecenoate]"
quantitative_result = 1.28

[[record]]
compound = "CCCCCCCCCCCCCCC(=O)O [pentadecanoate (15:0), pentadecanoate]"
quantitative_result = 1.27

[[record]]
compound = "CC/C=C\\C/C=C\\C/C=C\\C/C=C\\CCCCC(=O)O [stearidonate (18:4n3), stearidonate]"
quantitative_result = 0.71

[[record]]
compound = "CCCCC/C=C\\C/C=C\\CCCCCCCCCCCC(=O)O [docosadienoate (22:2n6), docosadienoate]"
quantitative_result = 1.08

[[record]]
compound = "CCCCCCCC/C=C\\CCCCCCCCCCCC(=O)O [erucate (22:ln9), erucate]"
quantitative_result = 0.81


INPUT: Requested read-out: serum concentration 12 wk / 0 wk. Entry: CCCC/C=C\CCCCCCCC(=O)O [myristoleate (14:ln5), myristoleate]
OUTPUT: 1.55

INPUT: Requested read-out: serum concentration 12 wk / 0 wk. Entry: CCCCCC/C=C\CCCCCCCC(=O)O [palmitoleate (16:ln7), palmitoleate]
OUTPUT: 0.99

INPUT: Requested read-out: serum concentration 12 wk / 0 wk. Entry: CCCCC/C=C\C/C=C\C/C=C\C/C=C\C/C=C\CCC(=O)O [docosapentaenoate (n6 DPA; 22:5n6)]
OUTPUT: 2.5

----------
Recorded serum concentration 6 wk / 0 wk for the following molecules
TEST DETAILS: Serum fatty acid metabolomics (UPLC-MS/MS), feeding study
CONDITIONS USED: in vivo
A bare number is all that is needed in reply.

[[record]]
molecule = "CCCCCCCCCCCCCCCCCCC(=O)O [nonadecanoate (19:0), nonadecanoate]"
quantity_name = "serum concentration 6 wk / 0 wk"
quantitative_result = 1.22

[[record]]
molecule = "CCCCCCC=CCCCC(=O)O [5-dodecenoate (12:ln7), 5-dodecenoate]"
quantity_name = "serum concentration 6 wk / 0 wk"
quantitative_result = 1.49

[[record]]
molecule = "CCCCC/C=C\\C/C=C\\C/C=C\\C/C=C\\C/C=C\\CCC(=O)O [docosapentaenoate (n6 DPA; 22:5n6)]"
quantity_name = "serum concentration 6 wk / 0 wk"
quantitative_result = 1.68


Shifting focus to the molecule that follows.
INPUT: Requested read-out: serum concentration 6 wk / 0 wk. Entry: CCCCCCCC/C=C\CCCCCCCCCCCC(=O)O [erucate (22:ln9), erucate]
OUTPUT: 0.71

----------
TEST DETAILS: Serum fatty acid metabolomics (UPLC-MS/MS), feeding study
CONDITIONS USED: bottlenose dolphin (Tursiops truncatus), in vivo, 24 weeks
QUANTITY NAME: serum concentration 24 wk / 0 wk

[[record]]
compound = "CCCCCCCCC(=O)O [perlargonate (9:0), nonanoic acid]"
quantity_name = "serum concentration 24 wk / 0 wk"
result = 1.41

[[record]]
compound = "CCCCC/C=C\\C/C=C\\CCCCCCCC(=O)O [linoleate (18:2n6), linoleate]"
quantity_name = "serum concentration 24 wk / 0 wk"
result = 0.66

[[record]]
compound = "CCCCC/C=C\\C/C=C\\C/C=C\\C/C=C\\CCCC(=O)O [Arachidonic acid]"
quantity_name = "serum concentration 24 wk / 0 wk"
result = 1.19


Shifting focus to the compound that follows.
INPUT: Requested read-out: serum concentration 24 wk / 0 wk. Entry: CC/C=C\C/C=C\C/C=C\C/C=C\C/C=C\CCCC(=O)O [eicosapentaenoate (EPA; 20:5n3), eicosapentaenoate]
OUTPUT: 0.57

----------
TEST DETAILS: Serum fatty acid metabolomics (UPLC-MS/MS), feeding study
CONDITIONS USED: in vivo
Recorded serum concentration 18 wk / 0 wk for the following compounds
A bare number is all that is needed in reply.

// known answers, use as guide
[[record]]
compound = "CCCCC/C=C\\C/C=C\\CCCCCCCCCCCC(=O)O [docosadienoate (22:2n6), docosadienoate]"
quantitative_result = 0.99

[[record]]
compound = "CCCCCCCCCCCCCCCCCCC(=O)O [nonadecanoate (19:0), nonadecanoate]"
quantitative_result = 1.79

[[record]]
compound = "CCCCCCCC/C=C\\CCCCCCCCCCCC(=O)O [erucate (22:ln9), erucate]"
quantitative_result = 0.68

[[record]]
compound = "CCCCCCCC/C=C\\CCCCCCCCCCCCCC(=O)O [nervonate (24:ln9)*, nervonate]"
quantitative_result = 0.74

[[record]]
compound = "CCCC/C=C\\CCCCCCCC(=O)O [myristoleate (14:ln5), myristoleate]"
quantitative_result = 0.97


INPUT: Requested read-out: serum concentration 18 wk / 0 wk. Entry: CCCCC/C=C\C/C=C\C/C=C\C/C=C\C/C=C\CCC(=O)O [docosapentaenoate (n6 DPA; 22:5n6)]
OUTPUT: 2.33

INPUT: Requested read-out: serum concentration 18 wk / 0 wk. Entry: CCCCCCC=CCCCC(=O)O [5-dodecenoate (12:ln7), 5-dodecenoate]
OUTPUT: 1.08

INPUT: Requested read-out: serum concentration 18 wk / 0 wk. Entry: CCCCCCC=CCCCCCCCCC(=O)O [10-heptadecenoate (17:ln7), 10-heptadecenoate]
OUTPUT: 1.35

----------
TEST DETAILS: Serum fatty acid metabolomics (UPLC-MS/MS), feeding study
CONDITIONS USED: in vivo
Recorded serum concentration 6 wk / 0 wk for the following molecules
A bare number is all that is needed in reply.

INPUT: Requested read-out: serum concentration 6 wk / 0 wk. Entry: C=CCCCCCCCCC(=O)O [10-undecenoate (1 l:ln1), 10-undecenoate]
OUTPUT: 1.41

INPUT: Requested read-out: serum concentration 6 wk / 0 wk. Entry: CCCCCCCC/C=C\CCCCCCCCCCCCCC(=O)O [nervonate (24:ln9)*, nervonate]
OUTPUT: 0.71

INPUT: Requested read-out: serum concentration 6 wk / 0 wk. Entry: CCCCC/C=C\C/C=C\C/C=C\C/C=C\CCCCCC(=O)O [adrenate (22:4n6), all-cis-7,10,13,16-docosatetraenoic acid]
OUTPUT: 1.51

INPUT: Requested read-out: serum concentration 6 wk / 0 wk. Entry: CC/C=C\C/C=C\C/C=C\CCCCCCCCCCCC(=O)O [docosatrienoate (22:3n3), docosatrienoate]
OUTPUT: 1.08

INPUT: Requested read-out: serum concentration 6 wk / 0 wk. Entry: CCCCCCCCC=CCCCCCCCCC(=O)O [10-nonadecenoate (19:ln9), 10-nonadecenoate]
OUTPUT: 1.05

INPUT: Requested read-out: serum concentration 6 wk / 0 wk. Entry: CCCCCCC=CCCCCCCCCC(=O)O [10-heptadecenoate (17:ln7), 10-heptadecenoate]
OUTPUT: 1.12

INPUT: Requested read-out: serum concentration 6 wk / 0 wk. Entry: CCCCC/C=C\C/C=C\CCCCCCCCCC(=O)O [dihomo-linoleate (20:2n6), dihomo-linoleate]
OUTPUT: 0.9

Reference for the values: patent US11116740B2
